Data origin: ChEMBL document CHEMBL6114984

Assay: Metabolic stability in rat liver assessed as intrinsic clearance
parameter: CLint scaled
Note to self: number, then unit, no commentary.

Record request: CLint scaled value, item O=C(O)Cc1ccccc1Nc1c(Cl)cccc1Cl [DICLOFENAC] 127 mL/min/kg

* * *

Test: in vitro
Conditions: rat, liver microsomes
Description: Metabolic stability in rat liver microsomes assessed as parent compound remaining measured after 5 min
parameter: remaining at 5 min

For the compound `O=C(O)Cc1ccccc1Nc1c(Cl)cccc1Cl` , what remaining at 5 min is on record? 77.9%

* * *

System: KYSE-450
Assay: cells
Settings: Homo sapiens, KYSE-450, 48 h
Description: Antiproliferative activity against human KYSE-450 cells assessed as inhibition of cell proliferation incubated for 48 hrs by MTT assay
parameter: IC50 (µM)
Answer in µM, number only, no unit symbol.

Would you mind telling me what IC50 value was observed for `CNC(=O)c1ccccc1Nc1nc(Nc2ccc(N3CCOCC3)cc2OC)ncc1Cl` ? 3.44
